Values were extracted from patent US20140154817A1.

assay target: T1, Human IGF-I (human, UniProt P05019 49-118)
T1 construct: mature
assay summary: ITC, 25 °C, IGF-1R αCT peptide 200 µM titrated into IGF-I 20 µM
Procedure: ITC experiments were performed using a VP-ITC isothermal titration calorimeter (MicroCal Inc., USA) with the calorimeter cell held at 25° C. […] Data were analyzed using the instrument's software incorporated within the Origin 7 software (OriginLab, USA) and in all cases fitted as a single-site interaction using the methodologies outlined in the instrument's manual.
pKd: −log10 of the molar value.
measured attribute: pKd

Given item VFENFLHNSIFVPRPE (Mature IGF-1R numbering; also called IGF-1R αCT; IGF1R-αCT) [IGF-1R classical α-chain C-terminal peptide (residues 691-706)] , the value recorded as its pKd is < 3.00
